# measurementDescription: clinical
# Type: in vivo, CF patients
# measurementContext: human, sputum, inhaled or intranasal, 300 mg, Sputum Tobramycin Concentrations, Mean/Std Dev, Pari LC, 10 min; 5 subjects
readoutName: concentration at 10 min (ng/g)
Numbers only, in ng/g.

Task: GET /values?readout=concentration at 10 min&item= NC[C@H]1O[C@H](O[C@H]2[C@H](O)[C@@H](O[C@H]3O[C@H](CO)[C@@H](O)[C@H](N)[C@H]3O)[C@H](N)C[C@@H]2N)[C@H](N)C[C@@H]1O
Output: 811000

====

# measurementDescription: clinical
# Type: in vivo, CF patients
# measurementContext: human, serum, inhaled or intranasal, 300 mg, Serum Tobramycin, Pari LC, 1 hour after aerosol; 300 mg in 5 ml 1/4 NS; single subjects 001-005 in order
readoutName: concentration at 1 h (ng/mL)
Numbers only, in ng/mL.

Task: Consider the molecule NC[C@H]1O[C@H](O[C@H]2[C@H](O)[C@@H](O[C@H]3O[C@H](CO)[C@@H](O)[C@H](N)[C@H]3O)[C@H](N)C[C@@H]2N)[C@H](N)C[C@@H]1O and give its measured concentration at 1 h.
Output: 500

====

# measurementDescription: Preliminary pharmacokinetics of tobramycin in sputum after aerosol
# Assay type: in vivo, patients with CF
# measurementContext: human, sputum, inhaled or intranasal; 20 mg/ml in 30 ml half normal saline, Ultraneb 99; read-out: time of peak sputum levels after therapy
readoutName: Tmax

Task: Which Tmax is reported for this compound? NC[C@H]1O[C@H](O[C@H]2[C@H](O)[C@@H](O[C@H]3O[C@H](CO)[C@@H](O)[C@H](N)[C@H]3O)[C@H](N)C[C@@H]2N)[C@H](N)C[C@@H]1O
Output: 10 to 30 min

====

# measurementDescription: clinical
# Type: in vivo, CF patients
# measurementContext: human, in vivo, inhaled or intranasal, 300 mg; Sidestream, 10 min; 5 subjects
readoutName: concentration at 10 min (ng/g)
Answers are plain numbers, in ng/g.

Task: // query concentration at 10 min value for entry NC[C@H]1O[C@H](O[C@H]2[C@H](O)[C@@H](O[C@H]3O[C@H](CO)[C@@H](O)[C@H](N)[C@H]3O)[C@H](N)C[C@@H]2N)[C@H](N)C[C@@H]1O [tobramycin]
Output: 527000

====

# measurementDescription: clinical
# Format: in vivo, CF patients
# measurementContext: human, sputum, inhaled or intranasal, 300 mg, Sputum Tobramycin Concentrations, Sidestream, 2 hours after aerosol; 300 mg in 5 ml 1/4 NS; single subjects 001-005 in order
readoutName: concentration at 2 h (ng/g)
Give bare numbers, in ng/g.

Task: Please look up its concentration at 2 h: NC[C@H]1O[C@H](O[C@H]2[C@H](O)[C@@H](O[C@H]3O[C@H](CO)[C@@H](O)[C@H](N)[C@H]3O)[C@H](N)C[C@@H]2N)[C@H](N)C[C@@H]1O
Output: 57500

====

# measurementDescription: Preliminary pharmacokinetics of tobramycin in sputum after aerosol
# Format: in vivo, patients with CF
# measurementContext: human, sputum, inhaled or intranasal, 20 mg/ml in 30 ml half normal saline, Ultraneb 99, 200 inhalations; twenty patients; read-out: peak sputum level, median
readoutName: Cmax (ng/g)
One number for each entry, in ng/g.

Task: Sample NC[C@H]1O[C@H](O[C@H]2[C@H](O)[C@@H](O[C@H]3O[C@H](CO)[C@@H](O)[C@H](N)[C@H]3O)[C@H](N)C[C@@H]2N)[C@H](N)C[C@@H]1O [tobramycin] — what was its Cmax?
Output: 1.61e+06
